Test: Test for proteolytic degradation of the peptide compounds in ovine serum
Format: in vitro ADME, ewes of the Ile de France breed
Details: female, Ile de France, sheep; ovine serum, 39° C., 50 μM, 3 h; % of the area of the HPLC peak at time t = 0; read-out: % of peptide intact after 3 h of incubation in the serum
QUANTITY: remaining at 3 h, 50 μM

Reported remaining at 3 h, 50 μM for CC(C)C[C@H](NC(=O)CNC(=O)[C@H](Cc1ccccc1)NC(=O)[C@H](CO)NC(=O)[C@H](CC(N)=O)NC(=O)[C@H](Cc1c[nH]c2ccccc12)NC(=O)[C@H](CC(N)=O)NC(=O)[C@@H](N)Cc1ccc(O)cc1)C(=O)N[C@@H](CCCNC(=N)N)C(=O)N[C@@H](Cc1ccccc1)C(N)=O [Comp. 2, reference compound] : what is it?
< 0.1%
